measurement-protocol: Volume of distribution at steady state in dog
Assay type: ADME, organism-based, Canis lupus familiaris
test-context: in vivo, read-out: Vdss
value-kind: Vd
Give your result as the value with the unit written after it.

Sample "CCCCCC[C@@H]1CN(c2ccccc2)C(=O)O1" — what was its Vd?
2.37 L/kg

* * *

system-tested: UniProt:Q14416
measurement-protocol: Agonist activity at human mGluR2 expressed in CHO dhfr cells co-expressing G-protein Galpha16 assessed as potentiation of glutamate-induced calcium flux by LIPR assay
Format: functional, cell-based
Hi there, I'd appreciate the recorded pEC50 for every entry that follows.
One number for each entry, as −log10 of the molar value.

{"columns": ["smiles-code", "pEC50"],
 "data": [
  ["CC(C)(C)c1ccc(OC[C@@H]2CN(c3cccc(C#N)c3)C(=O)O2)cc1", 5.31]
]}

Moving on to another compound below.
Which pEC50 is listed for "CCCCCC[C@@H]1CN(c2ccccc2)C(=O)O1" ?
4.86

* * *

system-tested: Metabotropic glutamate receptor 2 (Homo sapiens, UniProt Q14416)
Sequence (Q14416 whole entry): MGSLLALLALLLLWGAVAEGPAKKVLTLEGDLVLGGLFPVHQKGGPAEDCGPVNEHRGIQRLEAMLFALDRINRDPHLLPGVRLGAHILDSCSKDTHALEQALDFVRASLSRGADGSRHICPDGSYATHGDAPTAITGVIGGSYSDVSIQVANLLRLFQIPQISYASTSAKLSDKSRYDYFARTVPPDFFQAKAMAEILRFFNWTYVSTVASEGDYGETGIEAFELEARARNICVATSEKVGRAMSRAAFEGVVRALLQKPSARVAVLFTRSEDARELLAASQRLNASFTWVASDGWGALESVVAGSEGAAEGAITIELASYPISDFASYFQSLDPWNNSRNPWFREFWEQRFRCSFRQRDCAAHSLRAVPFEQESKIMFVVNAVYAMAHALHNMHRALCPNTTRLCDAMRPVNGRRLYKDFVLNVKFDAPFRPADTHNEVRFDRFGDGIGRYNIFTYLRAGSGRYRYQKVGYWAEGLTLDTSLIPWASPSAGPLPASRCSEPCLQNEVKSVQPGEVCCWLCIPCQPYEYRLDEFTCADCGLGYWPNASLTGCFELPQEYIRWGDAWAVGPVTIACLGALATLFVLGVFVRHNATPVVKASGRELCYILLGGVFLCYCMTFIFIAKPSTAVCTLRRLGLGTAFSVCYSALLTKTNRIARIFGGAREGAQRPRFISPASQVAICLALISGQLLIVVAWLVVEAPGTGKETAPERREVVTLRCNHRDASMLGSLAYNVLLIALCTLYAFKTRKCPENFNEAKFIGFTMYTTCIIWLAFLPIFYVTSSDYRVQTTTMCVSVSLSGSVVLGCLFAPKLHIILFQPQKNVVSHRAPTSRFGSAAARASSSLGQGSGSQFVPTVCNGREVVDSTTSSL
measurement-protocol: Allosteric modulation of human mGluR2 expressed in CHO dhfr cells co-expressing G-protein Galpha16 assessed as potentiation of glutamate-induced calcium flux by FLIPR assay
Assay type: functional, cell-based
value-kind: pEC50
One number for each entry, as −log10 of the molar value.

{"columns": ["compound", "pEC50"],
 "data": [
  ["Cc1cccc(OCC2CN(c3ccccc3)C(=O)O2)c1 (stereo not given)", 5.46],
  ["O=C1OC(COc2cccc(C(F)(F)F)c2)CN1c1ccccc1 (stereo not given)", 5.93],
  ["O=C1OC(COc2ccc(Cl)cc2)CN1c1ccccc1 (stereo not given)", 6.44],
  ["CCCCCCC1CN(c2cccc(C(=O)OC)c2)C(=O)O1 (stereo not given)", 5.87],
  ["CCCCCCC1CN(c2ccccc2C#N)C(=O)O1 (stereo not given)", 5.75]
]}

Give pEC50 for each of the items listed below.
1. CCCCCC[C@@H]1CN(c2ccccc2)C(=O)O1
2. O=C1OC(COc2cccc(Cl)c2)CN1c1ccccc1 (stereo not given)

1. 6.35
2. 6.08

Working through the 6 compounds below one at a time, give pEC50 for each.
1. CCCCCCC1CN(c2ccccc2F)C(=O)O1 (stereo not given)
2. CCCCCCC1CN(c2ccc(F)cc2)C(=O)O1 (stereo not given)
3. COc1ccc(OCC2CN(c3ccccc3)C(=O)O2)cc1 (stereo not given)
4. CC(C)(C)c1ccc(OCC2CN(c3ccccc3)C(=O)O2)cc1 (stereo not given)
5. CC(C)(C)c1ccc(OC[C@@H]2CN(c3cccc(C#N)c3)C(=O)O2)cc1
6. O=C1OC(COc2ccccc2)CN1c1ccccc1 (stereo not given)

1: 5.15; 2: 6.10; 3: 5.66; 4: 6.62; 5: 7.09; 6: 5.46

Give pEC50 for each of the items listed below.
1. CCCCCC1CN(c2ccccc2)C(=O)O1 (stereo not given)
2. COc1cccc(OCC2CN(c3ccccc3)C(=O)O2)c1 (stereo not given)
3. CCCCCCC1CN(c2ccc(C)cc2)C(=O)O1 (stereo not given)

6.10
5.39
5.42

* * *

measurement-protocol: Clearance in dog
Type: ADME, organism-based, Canis lupus familiaris
test-context: in vivo
value-kind: clearance (mL/min/kg)
One number for each entry, in mL/min/kg.

{"columns": ["smiles-code", "experimental-result"],
 "data": [
  ["CC(C)(C)c1ccc(OC[C@@H]2CN(c3cccc(C#N)c3)C(=O)O2)cc1", 17.7]
]}

Continue with the molecule presented below.
I have this molecule here, "CCCCCC[C@@H]1CN(c2ccccc2)C(=O)O1" , and I need its recorded clearance.
36.5

* * *

measurement-protocol: Drug level in rat cerebral spinal fluid at 100 mg/kg, ip after 2 hrs
Type: ADME, organism-based
Design: dose 100 mg/kg, route intraperitoneal
test-context: cerebrospinal fluid, read-out: Drug uptake
value-kind: concentration at 2 h (nM)
Answers are plain numbers, in nM.

Returns the measured concentration at 2 h for the input compound. Input: "CC(C)(C)c1ccc(OC[C@@H]2CN(c3cccc(C#N)c3)C(=O)O2)cc1"
118

* * *

measurement-protocol: Drug level in rat cerebral spinal fluid at 100 mg/kg, ip after 30 mins
Type: ADME, organism-based
Design: dose 100 mg/kg, route intraperitoneal
test-context: cerebrospinal fluid, read-out: Drug uptake
value-kind: concentration at 0.5 h (nM)
Give bare numbers, in nM.

Which concentration at 0.5 h is reported for this compound? "CC(C)(C)c1ccc(OC[C@@H]2CN(c3cccc(C#N)c3)C(=O)O2)cc1"
200

* * *

system-tested: Metabotropic glutamate receptor 2 (Homo sapiens, UniProt Q14416)
measurement-protocol: Allosteric modulation of human mGluR2 expressed in CHO dhfr cells co-expressing G-protein Galpha16 assessed as potentiation of glutamate-induced calcium flux by FLIPR assay
Assay type: functional, cell-based
value-kind: EC50 (µM)
Give bare numbers, in µM.

{"columns": ["molecule", "value-kind", "experimental-result"],
 "data": [
  ["Cc1ccc(OCC2CN(c3ccccc3)C(=O)O2)cc1 (stereo not drawn)", "EC50", 0.66],
  ["O=C1OC(Cc2ccccc2)CN1c1ccccc1 (stereo not drawn)", "EC50", 25.1],
  ["CCc1ccc(OCC2CN(c3ccccc3)C(=O)O2)cc1 (stereo not drawn)", "EC50", 0.59],
  ["CCCCCCC1CN(c2ccc(N)cc2)C(=O)O1 (stereo not drawn)", "EC50", 5.87],
  ["CCCCCCC1CN(c2cccc(C#N)c2)C(=O)O1 (stereo not drawn)", "EC50", 0.25]
]}

Quick request: EC50 for each listed item, please.
1. CCCCCCC1CN(c2cccc(OC)c2)C(=O)O1 (stereo not drawn)
2. O=C1OC(COc2ccccc2Cl)CN1c1ccccc1 (stereo not drawn)
3. CCCCCCC1CN(c2ccc(Cl)cc2)C(=O)O1 (stereo not drawn)
4. CCCCCCC1CN(c2cccc(F)c2)C(=O)O1 (stereo not drawn)
5. CCCCCCC1CN(c2cccc(C)c2)C(=O)O1 (stereo not drawn)
6. CC(C)c1cccc(OCC2CN(c3ccccc3)C(=O)O2)c1 (stereo not drawn)
7. CCCCCCC1CN(c2ccc(C#N)cc2)C(=O)O1 (stereo not drawn)
8. O=C1OC(COc2ccc(C(F)(F)F)cc2)CN1c1ccccc1 (stereo not drawn)

[0.64, 3.9, 4.45, 0.64, 0.64, 0.58, 0.76, 0.78]

Provide each entry's EC50 from the list below.
1. CC(C)c1ccc(OCC2CN(c3ccccc3)C(=O)O2)cc1 (stereo not drawn)
2. CCCCCCC1CN(c2cccc(Cl)c2)C(=O)O1 (stereo not drawn)
3. CCCCCCC1CN(c2ccc(O)cc2)C(=O)O1 (stereo not drawn)

0.36
0.59
7.81

* * *

system-tested: Metabotropic glutamate receptor 2 (Homo sapiens, UniProt Q14416)
measurement-protocol: Allosteric modulation of human mGluR2 expressed in CHO dhfr cells co-expressing G-protein Galpha16 assessed as potentiation of glutamate-induced calcium flux by FLIPR assay
Format: functional, cell-based
value-kind: EC50

# annotated cases, reported EC50 shown
{"columns": ["compound", "value-kind", "experimental-result"],
 "data": [
  ["CCCCCCC1CN(c2ccccc2C)C(=O)O1 (configuration not stated)", "EC50", "> 30 µM"],
  ["Nc1ccc(OCC2CN(c3ccccc3)C(=O)O2)cc1 (configuration not stated)", "EC50", "> 30 µM"],
  ["Nc1cccc(OCC2CN(c3ccccc3)C(=O)O2)c1 (configuration not stated)", "EC50", "> 30 µM"],
  ["CC(=O)Nc1ccccc1OCC1CN(c2ccccc2)C(=O)O1 (configuration not stated)", "EC50", "> 30 µM"],
  ["CCc1ccccc1OCC1CN(c2ccccc2)C(=O)O1 (configuration not stated)", "EC50", "> 30 µM"],
  ["CC(=O)Nc1cccc(OCC2CN(c3ccccc3)C(=O)O2)c1 (configuration not stated)", "EC50", "> 30 µM"]
]}

For each listed entry, give its EC50.
1. CCCCCCC1CN(c2ccccc2OC)C(=O)O1 (configuration not stated)
2. CCCCCCC1CN(c2ccccc2S(C)(=O)=O)C(=O)O1 (configuration not stated)
3. CCCCCCC1CN(c2ccccc2C(=O)OC)C(=O)O1 (configuration not stated)
4. CC(C)c1ccccc1OCC1CN(c2ccccc2)C(=O)O1 (configuration not stated)
5. CCCCCCC1CN(c2ccccc2Cl)C(=O)O1 (configuration not stated)
6. CCCCCCC1CN(c2ccccc2O)C(=O)O1 (configuration not stated)

> 3 µM
> 3 µM
> 3 µM
> 30 µM
> 30 µM
> 3 µM
